- tested-system: elastase (LasB) (Pseudomonas aeruginosa, UniProt P14756)
- Sequence (P14756 198-498): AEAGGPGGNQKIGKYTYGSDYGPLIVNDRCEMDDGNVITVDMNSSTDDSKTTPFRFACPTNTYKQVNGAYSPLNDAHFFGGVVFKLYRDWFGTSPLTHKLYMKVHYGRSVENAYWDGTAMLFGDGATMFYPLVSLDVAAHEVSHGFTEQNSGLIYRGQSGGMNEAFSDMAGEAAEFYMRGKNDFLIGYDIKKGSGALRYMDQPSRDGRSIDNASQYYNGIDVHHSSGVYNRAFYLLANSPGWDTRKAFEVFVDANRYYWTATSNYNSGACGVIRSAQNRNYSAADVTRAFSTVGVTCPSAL
- assay-notes: In vitro elastase assay with fluorogenic substrate Abz-peptide-Nba
Task for the reader: assign each of the following molecules its reported IC50.
Use nM as the unit, but write only the number.

(Q) IC50 for CCCCCCCc1sc2ccccc2c(=S)c1O ?
(A) 2000

(Q) IC50 for CCCCCCCc1oc2ccccc2c(=S)c1O [Compound 7, 2-heptyl-3-hydroxy-4H-chromene-4-thione] ?
(A) 2000

(Q) IC50 for CCCCCCCc1[nH]c2ccccc2c(=S)c1O [Compound 6, 2-heptyl-3-hydroxyquinoline-4(1H)-thione] ?
(A) 4000

* * *

- tested-system: elastase (LasB) (Pseudomonas aeruginosa, UniProt Q02RJ6)
- Construct: 1.4 mL of the culture was centrifuged and the supernatant filtered through a sterile filter; endogenous in cells
- Sequence (Q02RJ6 198-498): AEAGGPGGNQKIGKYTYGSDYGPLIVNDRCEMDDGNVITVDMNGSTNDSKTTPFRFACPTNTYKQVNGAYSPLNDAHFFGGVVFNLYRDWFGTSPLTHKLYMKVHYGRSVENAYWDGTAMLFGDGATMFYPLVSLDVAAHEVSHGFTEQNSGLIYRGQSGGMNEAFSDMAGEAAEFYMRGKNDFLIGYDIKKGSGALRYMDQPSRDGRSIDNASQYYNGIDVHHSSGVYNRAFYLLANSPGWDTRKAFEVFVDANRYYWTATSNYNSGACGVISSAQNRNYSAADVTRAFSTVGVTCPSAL
- assay-notes: In situ inhibition of elastolytic activity (Elastin-Congo Red) with life cultures of P. aeruginosa PA14
readout-name: IC50 (µM)
Use µM as the unit, but write only the number.

(Q) IC50 for CCCCCCCc1[nH]c2ccccc2c(=S)c1O [Compound 6, 2-heptyl-3-hydroxyquinoline-4(1H)-thione] ?
(A) 40

Where do these numbers come from? They come from patent US10961196B2.
